- Tested on: CCD-19Lu cells
- Method: MTT cytotoxicity assay, CCD-19Lu
- Assay type: cell-based, human
- Experimental Parameters: 72 h incubation, noncancerous fibroblast
Readout Kind: IC50
Provide the measurement as a number trailed by its unit.

Supply measured IC50 of N#Cc1ccccc1.[C-]#[O+].[C-]#[O+].[C-]#[O+].[O-]n1ccccc1=S.[Re+] [complex 4, fac-[Re(CO)3(pth)(benzonitrile)]] in your reply.
5.47 µM

* * *

- System: Colo205 cells
- Method: MTT cytotoxicity assay, Colo205
- Type: cell-based, human
- Experimental Parameters: 72 h incubation, MTT; read-out: IC50 Colo205
Readout Kind: IC50

Supply measured IC50 of N#Cc1ccccc1.[C-]#[O+].[C-]#[O+].[C-]#[O+].[O-]n1ccccc1=S.[Re+] [complex 4, fac-[Re(CO)3(pth)(benzonitrile)]] in your reply.
9.22 µM
